Provide the recorded pIC50 for the entries that follow.
Target: human LPA1 (Homo sapiens, UniProt Q92633)
Construct: expressed in transfected cells; host or cells: CHO-K1
Sequence (Q92633 whole entry): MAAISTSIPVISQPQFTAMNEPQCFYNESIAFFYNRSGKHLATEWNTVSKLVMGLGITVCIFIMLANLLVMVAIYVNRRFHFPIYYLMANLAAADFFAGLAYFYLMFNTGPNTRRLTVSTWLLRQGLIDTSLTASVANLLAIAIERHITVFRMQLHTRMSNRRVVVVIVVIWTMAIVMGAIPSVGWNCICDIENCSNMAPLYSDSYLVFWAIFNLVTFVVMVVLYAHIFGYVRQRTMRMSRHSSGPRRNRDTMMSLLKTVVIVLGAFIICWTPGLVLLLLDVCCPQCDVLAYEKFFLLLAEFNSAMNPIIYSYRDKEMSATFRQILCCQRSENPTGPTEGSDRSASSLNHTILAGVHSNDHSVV
Assay: In vitro LPA1 calcium flux antagonist assay - Bioduro protocol
Type: cell-based
Details: Table B3; CHO-K1 cells overexpressing human LPA1 and G15a, LPA challenge at EC80; read-out: Activity (IC50 class)
pIC50: −log10 of the molar value.

Below, each entry is followed by its recorded pIC50 result.
| MOLECULE | pIC50 |
| --- | --- |
| COc1cc(-c2ccc(NC3(C(=O)O)CCNCC3)cc2COC2CCCC2)cc(OC)c1C [Compound 142] | < 6.00 |
| CCOc1cc(OC)cc(-c2ccc(NC3(C(=O)O)CCOCC3)cc2COC2CC2)c1F [Compound 288] | > 7.00 |
| COc1cc(-c2ccc(NC3(C(=O)O)CCOCC3)cc2COC2CCCC2)cc(O)n1 [Compound 218] | < 6.00 |

Return reported pIC50 values for all items listed beneath this line.
1. CCOc1cccc(-c2ccc(NC3(C(=O)O)CCC(F)(F)CC3)cc2COC2CC2)c1Cl [Compound 385]
2. COc1cc(-c2ccc(OC3(C(=O)O)CCOCC3)cc2COC2CCCC2)c(C)c(OC)c1C [Compound 191]
3. COc1cc(-c2ccc(NCCC(=O)O)cc2COC2Cc3ccccc3C2)cc(OC)c1C [Compound 101]
4. COc1cc(O)nc(-c2c(C)cc(NC3(C(=O)O)CCOCC3)cc2COC2CCCC2)c1 [Compound 164]
5. CCOc1cccc(-c2ccc(NC3(C(=O)O)CCOCC3)cc2CCC2CC2)c1C(F)F [Compound 296]

Reply text:
1. > 7.00
2. > 7.00
3. 6.00 to 7.00
4. < 6.00
5. > 7.00

Return reported pIC50 values for all items listed beneath this line.
1. CCOc1cc(-c2ccc(OC3(C(=O)O)CCOCC3)cc2COC2CCCC2)cc(OC)c1C [Compound 379]
2. COc1cc(-c2ccc(NCCC(=O)O)cc2OCC2(C)Oc3ccccc3O2)cc(OC)c1C [Compound 115]

Reply text:
1. > 7.00
2. < 6.00
